B1: MFF (parent)
chain: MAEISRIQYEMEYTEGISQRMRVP

- Variants of: B1
- Assay details: protein stability index of a GFP-peptide fusion (GPS, HEK-293T) (PSI 1-6); higher = more stable;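 further: lentivirally expressed fusions sorted by FACS into six bins by GFP to DsRed ratio, PSI derived from sequencing read proportions per bin multiplied by bin number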
- Experimental conditions: c terminus: a fixed tail appended
# protein stability index >= 3 gives True, anything below gives False

Q19R: False

Is the recorded value of protein stability index equal to or greater than 3 for this variant? E12D
False

Is the recorded value of protein stability index equal to or greater than 3 for this variant? Q8R
False

Is the recorded value of protein stability index equal to or greater than 3 for this variant? I4G
True

Reference source: the supplement of paper PMC10567573
